System: HepG2
Assay: cytotoxicity call (relative viability < 0.9)
Conditions: 10 µM
Hit rate of the full screen: of about 39,000 compounds, about 3,300 (8.5%) were called active. The sample as a whole holds a higher share of actives than the screen did.
Outcome codes: T = active, F = inactive

substance-smiles: C[C@@H]1CN([C@@H](C)CO)C(=O)c2cc(NS(=O)(=O)c3cccs3)ccc2O[C@@H](C)CCCCO[C@H]1CN(C)C(=O)Nc1ccc(F)cc1
label-value: F
--
substance-smiles: CC(C)NC(=O)N(C)C[C@H]1Oc2ccc(NC(=O)CCCN(C)C)cc2C(=O)N([C@H](C)CO)C[C@H]1C
label-value: F
--
substance-smiles: C[C@@H]1CN([C@H](C)CO)S(=O)(=O)c2ccc(Br)cc2O[C@H]1CN(C)CC1CCOCC1
label-value: F
--
substance-smiles: C[C@@H]1CCCCO[C@H](CN(C)C(=O)c2ccccc2)[C@@H](C)CN([C@H](C)CO)C(=O)c2cc(NS(=O)(=O)c3ccc(Cl)cc3)ccc2O1
label-value: F
--
substance-smiles: COc1ccc(S(=O)(=O)N(C)C[C@H]2Oc3ccc(NC(=O)Cc4ccccc4)cc3CC(=O)N([C@@H](C)CO)C[C@@H]2C)cc1
label-value: F
--
substance-smiles: CO[C@H]1CN(C)C(=O)c2cc(NC(=O)C3CC3)ccc2OC[C@H](C)N(C(=O)Cc2ccccn2)C[C@H]1C
label-value: F
--
substance-smiles: CC(=O)Oc1ccc(-c2cc(=O)c3c(OC(C)=O)cc(OC(C)=O)cc3o2)cc1
label-value: F
--
substance-smiles: Cc1noc(C)c1NC(=O)N(C)C[C@H]1Oc2ccc(NC(=O)Cn3cnnn3)cc2C(=O)N([C@H](C)CO)C[C@@H]1C
label-value: F
--
substance-smiles: C[C@H]1CN([C@@H](C)CO)C(=O)Cc2cc(NC(=O)Cc3cn(C)c4ccccc34)ccc2O[C@H]1CN(C)S(=O)(=O)c1cn(C)cn1
label-value: F
--
substance-smiles: Cc1cc(N)c2ccccc2[n+]1CCCCCCCCCC[n+]1c(C)cc(N)c2ccccc21.[Cl-].[Cl-]
label-value: T
--
substance-smiles: CO[C@@H]1CN(C)C(=O)c2cc(NC(=O)c3cnccn3)ccc2OC[C@@H](C)N(CCC(F)(F)F)C[C@H]1C
label-value: F
--
substance-smiles: CO[C@H]1CN(C)C(=O)c2cc(NC(=O)Nc3ccccc3F)ccc2OC[C@@H](C)N(Cc2ccccc2C(=O)O)C[C@H]1C
label-value: F
--
substance-smiles: CC(C)NC(=O)N(C)C[C@H]1Oc2cc(C#Cc3cccc(F)c3)ccc2S(=O)(=O)N([C@@H](C)CO)C[C@H]1C
label-value: F
--
substance-smiles: COc1ccc(-c2cc(=O)c3c(O)c(OC)c(O[C@H]4O[C@H](CO[C@@H]5O[C@@H](C)[C@H](O)[C@@H](O)[C@H]5O)[C@@H](O)[C@H](O)[C@H]4O)cc3o2)cc1
label-value: F
--
substance-smiles: C[C@@H]1CN([C@H](C)CO)C(=O)c2cccc(NC(=O)C3CC3)c2O[C@H]1CN(C)Cc1ccc2c(c1)OCO2
label-value: F
